Entries annotated with measured pIC50
Test system: HIV-1 isolates, Mutant 9
Assay: In vitro drug sensitivity of HIV-1 laboratory isolates, Mutant 9
Assay type: cell-based
Conditions: Mutant 9; read-out: IC50 Mutant 9
Experimental: In Vitro Drug Sensitivity of HIV-1 Laboratory Isolates to PIs The sensitivities of HIV-1 isolates against compounds of the invention were determined as previously described with minor modifications (Shiraska et al., Proc. Natl. Acad. Sci. USA, 92, 2398-2402 (1995)).
Scale explanation: pIC50 corresponds to minus log10 of a concentration expressed in moles per litre.

Compound: CCC(=O)NCc1coc2ccc(S(=O)(=O)N(CC(C)C)C[C@@H](O)[C@H](Cc3ccccc3)NC(=O)OC3COC4OCCC34)cc12 (stereo partly shown)
pIC50: 7.30

Compound: CC(C)CN(C[C@@H](O)[C@H](Cc1ccccc1)NC(=O)OC1COC2OCCC12)S(=O)(=O)c1ccc2occ(CNC(=O)CSCc3ccccc3)c2c1 (stereo partly shown)
pIC50: 6.77

Compound: CC(C)CN(C[C@@H](O)[C@H](Cc1ccccc1)NC(=O)OC1COC2OCCC12)S(=O)(=O)c1ccc2oc(CBr)cc2c1 (stereo partly shown)
pIC50: 6.64

Okay, now this compound:
stdin: Param item = CC(C)CN(C[C@@H](O)[C@H](Cc1ccccc1)NC(=O)OC1COC2OCCC12)S(=O)(=O)c1ccc2occ(CNC(=O)CNC(=O)OCc3ccccc3)c2c1 (stereo partly shown) ; retrieve measured pIC50.
stdout: 7.24

====

Here, each record is paired with measured pIC50 data.
Test system: HIV-1 isolates, WT
Test: In vitro drug sensitivity of HIV-1 laboratory isolates, WT
Assay type: cell-based
Conditions: Human immunodeficiency virus 1; HIV-1 isolate WT
Value format note: pIC50 is -log10 of concentration (mol/L); just state the number.

Worked examples follow.
Compound: CCS(=O)(=O)N(CCOC)Cc1noc2ccc(S(=O)(=O)N(CC(C)C)CC(O)C(Cc3ccccc3)NC(=O)OC3COC4OCCC34)cc12 (stereo not drawn)
pIC50: 8.44
--
Compound: CC(C)CN(CC(O)C(Cc1ccccc1)NC(=O)OC1COC2OCCC12)S(=O)(=O)c1ccc2onc(CNCCc3ccccn3)c2c1 (stereo not drawn)
pIC50: 7.82

stdin: So what's the measured pIC50 for this one? CCCC[S+]([O-])Cc1noc2ccc(S(=O)(=O)N(CC(C)C)CC(O)C(Cc3ccccc3)NC(=O)OC3COC4OCCC34)cc12 (stereo not drawn)
stdout: 8.41

stdin: Dear colleague, I am looking for the recorded pIC50 of the following compound: CC(C)CN(CC(O)C(Cc1ccccc1)NC(=O)OC1COC2OCCC12)S(=O)(=O)c1ccc2onc(CNC(=O)C(F)(F)F)c2c1 (stereo not drawn)
stdout: 7.80

stdin: Report pIC50 for CC(C)CN(CC(O)C(Cc1ccccc1)NC(=O)OC1COC2OCCC12)S(=O)(=O)c1ccc2onc(CSC(C)C)c2c1 (stereo not drawn) please.
stdout: 8.46

stdin: Recorded pIC50 of CC(C)CN(CC(O)C(Cc1ccccc1)NC(=O)OC1COC2OCCC12)S(=O)(=O)c1ccc2onc(CN(C)S(C)(=O)=O)c2c1 (stereo not drawn) , please.
stdout: 8.52

====

Target: HIV-1 protease Mutant 9 (Human immunodeficiency virus type 1, UniProt P04585)
Assay: Ki against HIV-1 protease Mutant 9
Assay type: biochemical
Conditions: Mutant 9
pKi: −log10 of the molar value.
Classify by measured pKi: true if it is equal to or exceeds 9, false if it is smaller.

# example entries with known answers
Compound: CC(C)CN(CC(O)C(Cc1ccccc1)NC(=O)OC1COC2OCCC12)S(=O)(=O)c1ccc2occ(CO)c2c1 (stereo not shown)
Qualitative Label: true

Compound: Cc1n[nH]c2ccc(S(=O)(=O)N(CC(C)C)CC(O)C(Cc3ccccc3)NC(=O)OC3COC4OCCC34)cc12 (stereo not shown)
Qualitative Label: true

Compound: COCc1coc2ccc(S(=O)(=O)N(CC(C)C)CC(O)C(Cc3ccccc3)NC(=O)OC3COC4OCCC34)cc12 (stereo not shown)
Qualitative Label: true

Compound: CC(=O)NCc1coc2ccc(S(=O)(=O)N(CC(C)C)C[C@@H](O)[C@H](Cc3ccccc3)NC(=O)OC3COC4OCCC34)cc12 (stereo partly shown)
Qualitative Label: true

Compound: CC(C)CN(C[C@@H](O)[C@H](Cc1ccccc1)NC(=O)OC1COC2OCCC12)S(=O)(=O)c1ccc2oc(CBr)cc2c1 (stereo partly shown)
Qualitative Label: true

Compound: Cc1coc2ccc(S(=O)(=O)N(CC(C)C)CC(O)C(Cc3ccccc3)NC(=O)OC3COC4OCCC34)cc12 (stereo not shown)
Qualitative Label: true

Compound: CC(C)CN(C[C@@H](O)[C@H](Cc1ccccc1)NC(=O)OC1COC2OCCC12)S(=O)(=O)c1ccc2occ(CNC(=O)CNC(=O)OCc3ccccc3)c2c1 (stereo partly shown)
Qualitative Label: true

Compound: CCCC[S+]([O-])Cc1coc2ccc(S(=O)(=O)N(CC(C)C)C[C@@H](O)[C@H](Cc3ccccc3)NC(=O)OC3COC4OCCC34)cc12 (stereo partly shown)
Qualitative Label: true

stdin: Hi team, for CC(=O)OCc1coc2ccc(S(=O)(=O)N(CC(C)C)CC(O)C(Cc3ccccc3)NC(=O)OC3COC4OCCC34)cc12 (stereo not shown) , is the recorded pKi at or above 9?
stdout: true

stdin: # check: pKi of CC(C)CN(C[C@@H](O)[C@H](Cc1ccccc1)NC(=O)OC1COC2OCCC12)S(=O)(=O)c1ccc2occ(CNCC(=O)OC(C)(C)C)c2c1 (stereo partly shown) is greater than or equal to 9
stdout: true

stdin: Does pKi meet or surpass 9 for CC(C)CN(C[C@@H](O)[C@H](Cc1ccccc1)NC(=O)OC1CO[C@H]2OCC[C@@H]12)S(=O)(=O)c1ccc2c(c1)C(C)CO2 (stereo partly shown) ?
stdout: false

====

Reported pKi values are given for each entry in this list.
Target: wild type HIV-1 protease (Human immunodeficiency virus type 1 group M subtype B, UniProt P04585)
Construct: over 45 of the 99 amino acids of the HIV protease monomer
Assay: Ki against wild type (WT) HIV-1 protease
Type: biochemical
Conditions: wild type HIV-1 protease
pKi: −log10 of the molar value.

Guide cases for pKi, answers given:
Molecule: CC(C)CN(CC(O)C(Cc1ccccc1)NC(=O)OC1COC2OCCC12)S(=O)(=O)c1ccc2onc(CNC(=O)c3ccco3)c2c1 (stereo not drawn) [Compound 240]
pKi: > 10.00
//
Molecule: CC(C)CN(CC(O)C(Cc1ccccc1)NC(=O)OC1COC2OCCC12)S(=O)(=O)c1ccc2onc(CNC(=O)C(F)(F)F)c2c1 (stereo not drawn) [Compound 234]
pKi: > 10.00

Now for another entry.
stdin: Give its pKi value. Item: CC(C)CN(CC(O)C(Cc1ccccc1)NC(=O)OC1COC2OCCC12)S(=O)(=O)c1ccc2onc(Cn3ccnc3)c2c1 (stereo not drawn) [Compound 216]
stdout: > 10.00

====

Test system: HIV-1 isolates, Mutant 8
Experiment: In vitro drug sensitivity of HIV-1 laboratory isolates, Mutant 8
Type: cell-based
Details: Mutant 8; read-out: IC50 Mutant 8
Reported pIC50 by item:
Remember, pIC50 is on a log scale: it is -log10 of the molar concentration.

Compound: CC(C)CN(C[C@@H](O)[C@H](Cc1ccccc1)NC(=O)OC1COC2OCCC12)S(=O)(=O)c1ccc2oc(CBr)cc2c1 (stereo partly drawn) [Compound 104]
Value Measured: 7.39

stdin: // lookup pIC50 | system=HIV-1 isolates, Mutant 8 | key= CC(C)CN(C[C@@H](O)[C@H](Cc1ccccc1)NC(=O)OC1COC2OCCC12)S(=O)(=O)c1ccc2occ(CNC(=O)CSCc3ccccc3)c2c1 (stereo partly drawn) [Compound 119]
stdout: 7.38

====

Ki values, listed per item
Target: HIV-1 protease Mutant 9 (Human immunodeficiency virus type 1, UniProt P04585)
Assay: Ki against HIV-1 protease Mutant 9
Assay type: biochemical
Conditions: HIV-1 protease Mutant 9
Form entry: value (nM) — number only.

Worked examples follow.
Molecule: CC(C)CN(CC(O)C(Cc1ccccc1)NC(=O)OC1COC2OCCC12)S(=O)(=O)c1ccc2onc(CNCCc3ccccn3)c2c1 (stereo not drawn)
Ki (nM): 0.22

Molecule: CC(C)CN(CC(O)C(Cc1ccccc1)NC(=O)OC1COC2OCCC12)S(=O)(=O)c1ccc2onc(COCC(F)(F)F)c2c1 (stereo not drawn)
Ki (nM): 1.1

Molecule: CC(C)CN(CC(O)C(Cc1ccccc1)NC(=O)OC1COC2OCCC12)S(=O)(=O)c1ccc2onc(CNS(=O)(=O)C(C)C)c2c1 (stereo not drawn)
Ki (nM): 0.14

Please examine the following record next.
stdin: I would be grateful if you could share the reported Ki for CC(C)CN(CC(O)C(Cc1ccccc1)NC(=O)OC1COC2OCCC12)S(=O)(=O)c1ccc2onc(CO)c2c1 (stereo not drawn) .
stdout: 0.15

====

Target: HIV-1 protease Mutant 8 (Human immunodeficiency virus type 1, UniProt P04585)
Experiment: Ki against HIV-1 protease Mutant 8
Assay type: biochemical
Details: HIV-1 protease Mutant 8
pKi: −log10 of the molar value.
Endpoint Name: pKi

Compound: CC(C)CN(CC(O)C(Cc1ccccc1)NC(=O)OC1COC2OCCC12)S(=O)(=O)c1ccc2onc(COC(=O)C(C)(C)C)c2c1 (stereo not drawn) [Compound 218]
Target Of Assay: HIV-1 protease Mutant 8 (Human immunodeficiency virus type 1, UniProt P04585)
Value Measured: > 9.52

stdin: Recorded pKi for CCS(=O)(=O)N(CCOC)Cc1noc2ccc(S(=O)(=O)N(CC(C)C)CC(O)C(Cc3ccccc3)NC(=O)OC3COC4OCCC34)cc12 (stereo not drawn) [Compound 227] , please?
stdout: 9.39

stdin: Quick one: pKi of CC(C)CN(CC(O)C(Cc1ccccc1)NC(=O)OC1COC2OCCC12)S(=O)(=O)c1ccc2onc(CNC3CCCC3)c2c1 (stereo not drawn) [Compound 235] ?
stdout: > 9.52

stdin: Which pKi is listed for CC(C)CN(CC(O)C(Cc1ccccc1)NC(=O)OC1COC2OCCC12)S(=O)(=O)c1ccc2onc(CNCc3ccc4occc4c3)c2c1 (stereo not drawn) [Compound 248] ?
stdout: > 9.52

stdin: Would you kindly share the measured pKi for CC(C)CN(CC(O)C(Cc1ccccc1)NC(=O)OC1COC2OCCC12)S(=O)(=O)c1ccc2onc(CNCCNC(=O)OC(C)(C)C)c2c1 (stereo not drawn) [Compound 236] ?
stdout: > 9.52

stdin: May I ask what pKi has been recorded for CC(C)CN(CC(O)C(Cc1ccccc1)NC(=O)OC1COC2OCCC12)S(=O)(=O)c1ccc2onc(CNS(C)(=O)=O)c2c1 (stereo not drawn) [Compound 207] ?
stdout: > 9.52
